study-target: GTPase KRas (Homo sapiens, UniProt P01116, G12C)
assay-overview: Inhibition of KRAS G12C mutant (unknown origin)
quantity: pIC50
Note on units: pIC50 is unitless, being -log10 of a concentration expressed in mol/L.

C=CC(=O)N1CCN(c2nc(OCC34CCCN3CCC4)nc3c2cc(-c2cccc4cccc(C)c24)n3C)C[C@@H]1CC#N
5.81

Shifting focus to the compound that follows.
Task: Could you share what pIC50 was measured for C=CC(=O)N1CCN(c2nc(OC[C@@]34CCCN3C[C@H](F)C4)nc3c2cc(-c2cccc4cccc(C)c24)n3C)C[C@@H]1CC#N , tested on GTPase KRas (Homo sapiens, UniProt P01116, G12C)?
Output: 6.47

###

assay-overview: Oral bioavailability in Sprague-Dawley rat
Format: ADME, organism-based
condition-summary: in vivo
quantity: bioavailability (%)
Output spec: scalar in %, unitless text.

Task: Record request: bioavailability value, item Cc1c(C#N)cccc1[C@@H](C)Nc1nnc(C)c2cnc(N3CCOCC3)cc12 [MRTX-0902]
Output: 38

###

assay-overview: Oral bioavailability in Beagle dog
Format: ADME, organism-based, Canis lupus familiaris
condition-summary: in vivo
quantity: bioavailability (%)
Supply the numeric figure in %, leaving out any unit text.

Task: Recorded bioavailability of Cc1c(C#N)cccc1[C@@H](C)Nc1nnc(C)c2cnc(N3CCOCC3)cc12 , please.
Output: 38

###

Tested on: GTPase KRas (Homo sapiens), P01116 [G12C]
Sequence (P01116 whole entry G12C): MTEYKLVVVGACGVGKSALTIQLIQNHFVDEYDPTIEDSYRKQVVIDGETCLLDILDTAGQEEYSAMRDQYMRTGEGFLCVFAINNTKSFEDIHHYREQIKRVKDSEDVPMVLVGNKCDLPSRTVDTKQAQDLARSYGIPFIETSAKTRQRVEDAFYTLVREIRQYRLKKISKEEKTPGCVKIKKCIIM
assay-overview: Inhibition of KRAS G12C mutant (unknown origin) at 10 uM relative to control
quantity: inhibition (%)
Report the value in % with no unit label.

Guide cases for inhibition, answers given:
C=CC(=O)N1CCN(c2nc(OC[C@@]34CCCN3C[C@H](F)C4)nc3c2cc(-c2cccc4cccc(C)c24)n3C)C[C@@H]1CC#N
98.6
C=CC(=O)N1CCN(c2nc(OCC34CCCN3CCC4)nc3c2cc(-c2cccc4cccc(C)c24)n3C)C[C@@H]1CC#N
91.3
C=CC(=O)N1CCN(c2nc(OC[C@@H]3CCCN3C)nc3c2cc(-c2cccc4cccc(C)c24)n3C)C[C@@H]1CC#N
39.8

Task: Can you look up the measured inhibition of C=CC(=O)N1CCN(c2nc(OC[C@@H]3CCCN3C)nc3c2cc(-c2cccc4ccccc24)n3C)C[C@@H]1CC#N for me?
Output: 17

###

System: von Hippel-Lindau disease tumor suppressor/GTPase KRas (Homo sapiens), P01116+P40337 [G12C]
assay-overview: PROTAC activity at VHL/KRAS G12C mutant in human NCI-H2030 cells assessed as induction of protein degradation by measuring maximal efficacy at […] incubated for 24 hrs by Immunoblotting analysis relative to control
Format: cell-based
condition-summary: dose 2.5 µM
quantity: Emax (%)
// note: answer is a bare numeric in %

Completed entries (count: 3):
C=C(F)C(=O)N1CCN(c2nc(OC[C@@H]3CCCN3CCC(=O)NCCOCCOCCC(=O)N[C@H](C(=O)N3C[C@H](O)C[C@H]3C(=O)NCc3ccc(-c4scnc4C)cc3)C(C)(C)C)nc3c2CCN(c2cccc4cccc(Cl)c24)C3)C[C@@H]1CC#N
30
C=C(F)C(=O)N1CCN(c2nc(OC[C@@H]3CCCN3CCCOCCC(=O)N[C@H](C(=O)N3C[C@H](O)C[C@H]3C(=O)NCc3ccc(-c4scnc4C)cc3)C(C)(C)C)nc3c2CCN(c2cccc4cccc(Cl)c24)C3)C[C@@H]1CC#N
75
C=C(F)C(=O)N1CCN(c2nc(OC[C@@H]3CCCN3CCC(=O)NCCOCCC(=O)N[C@H](C(=O)N3C[C@H](O)C[C@H]3C(=O)NCc3ccc(-c4scnc4C)cc3)C(C)(C)C)nc3c2CCN(c2cccc4cccc(Cl)c24)C3)C[C@@H]1CC#N
35

Now consider the entry below.
Task: Form field: reported Emax of C=C(F)C(=O)N1CCN(c2nc(OC[C@@H]3CCCN3CCC(=O)NCCC(=O)N[C@H](C(=O)N3C[C@H](O)C[C@H]3C(=O)NCc3ccc(-c4scnc4C)cc3)C(C)(C)C)nc3c2CCN(c2cccc4cccc(Cl)c24)C3)C[C@@H]1CC#N
Output: 85
